- Tested on: Pseudomonas aeruginosa (ATCC 15442) biofilms
- Assay Notes: MBEC test, 24-hour biofilm, one hour biocide challenge;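 further: Peg-grown biofilms exposed to biocide, then regrowth in broth 18 h at 35 °C, turbidity by absorbance at 650 nm, above 0.100 counted as growth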
- Format: cell-based
- Condition Notes: Pseudomonas aeruginosa, ATCC15442, 1 h, 24-hour biofilm, 1 hour contact; blends: total amount of components (1:1 ratio); read-out: MBEC, ppm (first of duplicate runs)
Lab note: anything with minimum biofilm eradication concentration (MBEC) below 200 µg/mL is marked criterion met; values at 200 µg/mL or higher are marked criterion not met.

| Compound | Assayed Target | Answer Label |
| --- | --- | --- |
| CCCCCCCCCCCCCCN(C)C | Pseudomonas aeruginosa (ATCC 15442) biofilms | criterion not met |
| CCCCCCCCCCN(C)CCCCCCCCCC | Pseudomonas aeruginosa (ATCC 15442) biofilms | criterion not met |
| CCCCCCCCCCCCCCCCN(C)C | Pseudomonas aeruginosa (ATCC 15442) biofilms | criterion not met |
| CCCCCCN | Pseudomonas aeruginosa (ATCC 15442) biofilms | criterion not met |
| CCCCCCCCCCCCN | Pseudomonas aeruginosa (ATCC 15442) biofilms | criterion met |

Record O=CCCCC=O [glutaraldehyde, reference compound] : is its minimum biofilm eradication concentration (MBEC) strictly below 200 µg/mL?
criterion met

Lookup CCCCCCCCN
criterion not met
